Reference source: PubChem BioAssay (NCI)

Test system: M14 melanoma
Experiment: NCI tumour cell line growth inhibition, 48 h; in the data active means GI50 below about 0.43 µM; inactive means the rest
Labels: TRUE (active), FALSE (inactive)

SMILES TEXT	MEASURED TARGET	LABEL
CS(=O)(=O)c1ccc2c(c1)c1c(n2S(=O)(=O)c2ccc(Cl)cc2)CCCC1	M14 melanoma	FALSE
O=C(N/N=C\c1ccc(Cl)cc1)c1ccc2nc(-c3ccc(Br)cc3)[nH]c2c1	M14 melanoma	FALSE
CCOc1ccccc1NC1=C(Cl)C(=O)c2nc(C)ccc2C1=O	M14 melanoma	FALSE
O=C(Nc1cccc(Cl)c1)Nc1nc2ccc([N+](=O)[O-])cc2s1	M14 melanoma	FALSE
CC(=O)Nc1cccc(Nc2nc(N[C@@H](C)c3ccccc3)c3ccccc3n2)c1	M14 melanoma	TRUE
